- system.under.test: WT mGluR1α (Rattus norvegicus)
- Construct: expressed in transfected cells; host or cells: HEK293
- experimental.details: Single cell Fura-2 [Ca^2+]i response in HEK293 cells transiently transfected with WT mGluR1α
- Format: cell-based
- condition.parameters: CPCCOEt 0; read-out: Response to [Ca^2+]o: EC50
measured.attribute: EC50 (mM)
Numbers only; they are read as mM.

Would you mind telling me what EC50 value was observed for [Ca+2] [[Ca^2+]o] ?
3.5

* * *

- system.under.test: WT mGluR1α (Rattus norvegicus, UniProt P23385)
- Construct: expressed in transfected cells; host or cells: HEK293
- Sequence (P23385 19-1199): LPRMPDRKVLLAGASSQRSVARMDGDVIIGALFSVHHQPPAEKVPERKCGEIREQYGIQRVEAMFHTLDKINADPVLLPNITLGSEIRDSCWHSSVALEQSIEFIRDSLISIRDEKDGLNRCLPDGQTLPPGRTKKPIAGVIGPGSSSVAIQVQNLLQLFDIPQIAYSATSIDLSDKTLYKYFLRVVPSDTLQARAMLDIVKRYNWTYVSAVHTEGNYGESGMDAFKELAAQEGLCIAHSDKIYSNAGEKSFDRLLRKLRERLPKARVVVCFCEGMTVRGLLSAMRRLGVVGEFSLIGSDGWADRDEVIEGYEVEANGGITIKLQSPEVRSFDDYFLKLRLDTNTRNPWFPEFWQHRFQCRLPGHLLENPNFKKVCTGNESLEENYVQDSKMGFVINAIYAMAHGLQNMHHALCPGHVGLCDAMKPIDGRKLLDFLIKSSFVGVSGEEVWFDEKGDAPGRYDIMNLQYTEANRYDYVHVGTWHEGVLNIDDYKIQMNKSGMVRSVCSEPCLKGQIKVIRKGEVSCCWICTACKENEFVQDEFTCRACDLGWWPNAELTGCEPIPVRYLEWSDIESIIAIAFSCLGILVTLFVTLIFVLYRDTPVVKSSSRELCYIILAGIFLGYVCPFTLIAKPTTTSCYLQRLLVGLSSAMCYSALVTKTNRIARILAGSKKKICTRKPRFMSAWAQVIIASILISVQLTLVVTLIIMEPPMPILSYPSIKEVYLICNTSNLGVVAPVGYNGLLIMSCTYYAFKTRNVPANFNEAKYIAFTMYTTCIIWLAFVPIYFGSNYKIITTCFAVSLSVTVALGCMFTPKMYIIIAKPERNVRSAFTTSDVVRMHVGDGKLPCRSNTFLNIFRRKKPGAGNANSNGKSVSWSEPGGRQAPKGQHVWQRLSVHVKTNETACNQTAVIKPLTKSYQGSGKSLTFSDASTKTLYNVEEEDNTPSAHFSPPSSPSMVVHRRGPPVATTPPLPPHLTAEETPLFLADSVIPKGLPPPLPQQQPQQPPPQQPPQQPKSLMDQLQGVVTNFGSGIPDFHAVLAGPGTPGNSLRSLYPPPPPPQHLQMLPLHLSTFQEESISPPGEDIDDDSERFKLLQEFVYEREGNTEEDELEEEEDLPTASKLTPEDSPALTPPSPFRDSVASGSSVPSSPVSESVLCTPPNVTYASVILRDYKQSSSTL
- experimental.details: Single cell Fura-2 [Ca^2+]i response in HEK293 cells transiently transfected with WT mGluR1α
- Format: cell-based
- condition.parameters: (s)-MCPG 0; read-out: Response to [Ca^2+]o: EC50
measured.attribute: EC50 (mM)
Numbers only; they are read as mM.

Would you mind telling me what EC50 value was observed for [Ca+2] [[Ca^2+]o] ?
3.5
